# SYSTEM UNDER TEST: PU.1 (IVT) (UniProt P17947 1-270)
# TEST NAME: protein-binding microarray (PBM); 20 mM HEPES pH 7.9, 100 mM NaCl, 1 mM DTT, 0.2 mg/mL BSA, 0.02% Triton X-100, 2% milk, 0.4 mg/mL salmon testes DNA; 1 h; temperature not stated; high values mean tight binding
# CONDITION SUMMARY: dsDNA, one strand shown
In all, about 3,700 sequences were measured (“z-score”: median about 4, highest 2% from about 8.4 on). The entries come from a sample that favours the highest values as a whole.
Please respond with reported binding signal for every item in the list.
Answers are plain numbers, in z-score.

// worked examples, binding signal included
{"RESIDUE SEQUENCE": "GCCTAGCACAAAAAGGGGAAGTCTGGACTGTGCTAGGTCTTGATTCGCTTGACGCTGCTG", "binding signal / z-score": 7.65}
{"RESIDUE SEQUENCE": "GCCTAGCACAAAAAGAGGAAGTGAGCTTAGTGCTAGGTCTTGATTCGCTTGACGCTGCTG", "binding signal / z-score": 8.51}
{"RESIDUE SEQUENCE": "GCCTAGCACAAAAAAGGGAAGTGACATACGTGCTAGGTCTTGATTCGCTTGACGCTGCTG", "binding signal / z-score": 7.76}
{"RESIDUE SEQUENCE": "GCCTAGCACAAAAAAGGGAAGTGATTTAAGTGCTAGGTCTTGATTCGCTTGACGCTGCTG", "binding signal / z-score": 8.59}

For every item below, please supply its binding signal.
1. GCCTAGCACTAAAGAGGGAAGTGGGAGCCGTGCTAGGTCTTGATTCGCTTGACGCTGCTG
2. GCCTAGCACGAAAAGAGGAAGTGAGAAACGTGCTAGGTCTTGATTCGCTTGACGCTGCTG
3. GCCTAGCACGAAAAAAGGAAGTAGTATAAGTGCTAGGTCTTGATTCGCTTGACGCTGCTG
4. GCCTAGCACAAAAAGGGGAAGTGACATAAGTGCTAGGTCTTGATTCGCTTGACGCTGCTG
5. GCCTAGCACAAAGAAAGGAAGTGGCCTGTGTGCTAGGTCTTGATTCGCTTGACGCTGCTG
6. GCCTAGCACGAAATAGGGAAGTGTGAGTTGTGCTAGGTCTTGATTCGCTTGACGCTGCTG
7. GCCTAGCACCAAAAAGGGAAGTGGGTTGAGTGCTAGGTCTTGATTCGCTTGACGCTGCTG
8. GCCTAGCACAAAAAAGGGAAGTGAAAATAGTGCTAGGTCTTGATTCGCTTGACGCTGCTG

1. 3.74
2. 8.29
3. 6.96
4. 8.47
5. 2.71
6. 6.74
7. 7.02
8. 7.69

For every item below, please supply its binding signal.
1. GCCTAGCACAAAAAGAGGAAATGATTTACGTGCTAGGTCTTGATTCGCTTGACGCTGCTG
2. GCCTAGCACGAAAAGAGGAAGTCTTGCATGTGCTAGGTCTTGATTCGCTTGACGCTGCTG
3. GCCTAGCACGATAAGAGGAACTGTAAGCTGTGCTAGGTCTTGATTCGCTTGACGCTGCTG

1: 6.97; 2: 8.22; 3: 3.92

###

# SYSTEM UNDER TEST: PU.1 (IVT) (UniProt P17947 1-270)
# TEST NAME: protein-binding microarray (PBM); 20 mM HEPES pH 7.9, 100 mM NaCl, 1 mM DTT, 0.2 mg/mL BSA, 0.02% Triton X-100, 2% milk, 0.4 mg/mL salmon testes DNA; 1 h; temperature not stated; high values mean tight binding
# CONDITION SUMMARY: dsDNA, one strand shown
In all, about 3,700 sequences were measured (“z-score”: median about 4, highest 2% from about 8.4 on). This excerpt belongs to a sample that is enriched for the highest values.
EXPERIMENTAL READOUT: binding signal
The number alone won't do; follow it with the unit.

{"RESIDUE SEQUENCE": "GCCTAGCACAAAAAAAGGAAGTCAAAGTCGTGCTAGGTCTTGATTCGCTTGACGCTGCTG", "EXPERIMENTAL READOUT": "binding signal", "ENDPOINT RESULT": "6.75 z-score"}
{"RESIDUE SEQUENCE": "GCCTAGCACAAAAAGGGGAAGTCATCTATGTGCTAGGTCTTGATTCGCTTGACGCTGCTG", "EXPERIMENTAL READOUT": "binding signal", "ENDPOINT RESULT": "8.05 z-score"}
{"RESIDUE SEQUENCE": "GCCTAGCACAAAAAGAGGAAGTGCCCTGTGTGCTAGGTCTTGATTCGCTTGACGCTGCTG", "EXPERIMENTAL READOUT": "binding signal", "ENDPOINT RESULT": "8.56 z-score"}
{"RESIDUE SEQUENCE": "GCCTAGCACTAAATGAGGAAGTGACAGCTGTGCTAGGTCTTGATTCGCTTGACGCTGCTG", "EXPERIMENTAL READOUT": "binding signal", "ENDPOINT RESULT": "7.57 z-score"}

Field: next sequence
Lab note: measured binding signal of GCCTAGCACAAAAAAAGGAAATGAAATTAGTGCTAGGTCTTGATTCGCTTGACGCTGCTG was 3.65 z-score
